Test system: 556581-035-R-J1-PDC spheroids with HUVEC/MSC, viability;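 also: spheroids exposed to compounds for 7 days before readout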
Experiment: Anticancer human tumor 556581-035-R-J1-PDC patient-derived ovarian carcinoma cell line growth inhibition [IpAb]
Settings: second compound 10 µM; first compound 0.0316 µM; stronger effect = lower value
Experimental: Combinatorial screen of targeted agents with ipatasertib and abemaciclib in multi-cell type tumor spheroids […] Compounds. […] If the clinical Cmax for an agent had not been determined, the highest concentration tested was 10 microM. NCI60 Cell Culture. […] The optimal seeding densities for each of the cell lines at each time point assessed were determined prior to performing the concentration response studies. […]
Doc: threshold 40% (exclusive). Items with viability, T/C beneath it return Y; others return N.

Q: Dear colleague, could you confirm whether viability, T/C of CC(C)n1nc(-c2ccc3oc(N)nc3c2)c2c(N)ncnc21 + CC(C)NCC(C(=O)N1CCN(c2ncnc3c2C(C)CC3O)CC1)c1ccc(Cl)cc1 falls below 40%? Thanks.
Ans: Y

***
Q: Dear colleague, could you confirm whether viability, T/C of C=CCn1c(=O)c2cnc(Nc3ccc(N4CCN(C)CC4)cc3)nc2n1-c1cccc(C(C)(C)O)n1 + CC(C)NCC(C(=O)N1CCN(c2ncnc3c2C(C)CC3O)CC1)c1ccc(Cl)cc1 falls below 40%? Thanks.
Ans: N

Q: Dear colleague, could you confirm whether viability, T/C of CC1(C)CCC(CN2CCN(c3ccc(C(=O)NS(=O)(=O)c4ccc(NCC5CCOCC5)c([N+](=O)[O-])c4)c(Oc4cnc5[nH]ccc5c4)c3)CC2)=C(c2ccc(Cl)cc2)C1 + CC(C)NCC(C(=O)N1CCN(c2ncnc3c2C(C)CC3O)CC1)c1ccc(Cl)cc1 falls below 40%? Thanks.
Ans: N

Q: Dear colleague, could you confirm whether viability, T/C of CCCS(=O)(=O)Nc1ccc(F)c(C(=O)c2c[nH]c3ncc(-c4ccc(Cl)cc4)cc23)c1F + CC(C)NCC(C(=O)N1CCN(c2ncnc3c2C(C)CC3O)CC1)c1ccc(Cl)cc1 falls below 40%? Thanks.
Ans: N

Q: Dear colleague, could you confirm whether viability, T/C of C=CC(=O)N1CCN(c2nc(=O)n(-c3c(C)ccnc3C(C)C)c3nc(-c4c(O)cccc4F)c(F)cc23)C(C)C1 (configuration not stated) + CC(C)NCC(C(=O)N1CCN(c2ncnc3c2C(C)CC3O)CC1)c1ccc(Cl)cc1 falls below 40%? Thanks.
Ans: N

Q: Dear colleague, could you confirm whether viability, T/C of Cn1ncc(Cl)c1-c1cc(C(=O)NC(CN)Cc2cccc(F)c2)sc1Cl (configuration not stated) + CC(C)NCC(C(=O)N1CCN(c2ncnc3c2C(C)CC3O)CC1)c1ccc(Cl)cc1 falls below 40%? Thanks.
Ans: N

Q: Dear colleague, could you confirm whether viability, T/C of Cc1nc(NC(=O)N2CCCC2C(N)=O)sc1-c1ccnc(C(C)(C)C(F)(F)F)c1 (configuration not stated) + CC(C)NCC(C(=O)N1CCN(c2ncnc3c2C(C)CC3O)CC1)c1ccc(Cl)cc1 falls below 40%? Thanks.
Ans: Y

Values were extracted from PubChem BioAssay AID2060338.
